I'd be grateful if you could share measured EGF for these entries.
# Test system: PTEC-TERT1 cells
# procedure_text: EGF assay, supernatant of PTEC-TERT1 cells
# experimental_setup: PTEC-TERT1, 6 days, 10 μM oligonucleotide (Table 7)
Report as a plain number; the unit % saline is understood.

Task: Fill blank: measured EGF of the substance CACattsccttsgctsCTsG (antisense CACATTCCTTGCTCTG; LNA gapmer, stereodefined phosphorothioates, chemistry not fully specified) [Compound 10-2] is ____.
Output: 93

Task: Fill blank: measured EGF of the substance ACTgctttccactCTG (ACTGCTTTCCACTCTG; chemistry not given here) [Compound 8-1] is ____.
Output: 8412

Task: Fill blank: measured EGF of the substance CACattccttgctCTG (CACATTCCTTGCTCTG; chemistry not given here) [Compound 10-1] is ____.
Output: 305

###

# Test system: PTEC-TERT1 cells
# procedure_text: EGF assay, supernatant of PTEC-TERT1 cells
# experimental_setup: PTEC-TERT1, Day 3, 100 μM (Table 3)
l = locked nucleic acid (LNA); d = 2'-deoxy (DNA)
property: EGF (% saline)
Report as a plain number; the unit % saline is understood.

Task: Fill blank: measured EGF of the substance TAAggcaatcaagGTA (TAAGGCAATCAAGGTA; chemistry not given here) [Compound 5-1] is ____.
Output: 182

Task: Fill blank: measured EGF of the substance AATgctacaaaaCCCA (antisense AATGCTACAAAACCCA; sugars from the 5' end l3 d9 l4, backbone and methylation of C not given here) [Compound 2-1] is ____.
Output: 172

Task: Fill blank: measured EGF of the substance GCtgtgtgagcttGG (antisense GCTGTGTGAGCTTGG; sugars from the 5' end l2 d11 l2, backbone and methylation of C not given here) [Compound 4-1] is ____.
Output: 484

Task: Fill blank: measured EGF of the substance CGTcagtatgcgAATc (CGTCAGTATGCGAATC; chemistry not given here) [Compound 1-1] is ____.
Output: 137

Task: Fill blank: measured EGF of the substance TGCtacaaaacCCA (antisense TGCTACAAAACCCA; sugars from the 5' end l3 d8 l3, backbone and methylation of C not given here) [Compound 3-1] is ____.
Output: 207

###

# System: A549 cells
# procedure_text: Intracellular ATP assay, A549 cells transfected with oligonucleotide;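 further: ATP as percent of saline control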
# Format: cell-based, human
# experimental_setup: A549, 48 hours after transfection, 10 ng oligonucleotide
l = locked nucleic acid (LNA); d = 2'-deoxy (DNA)
property: ATP (% saline)
Report as a plain number; the unit % saline is understood.

Task: Fill blank: measured ATP of the substance AATgctacaaaaCCCA (antisense AATGCTACAAAACCCA; sugars from the 5' end l3 d9 l4, backbone and methylation of C not given here) [Compound 2-1] is ____.
Output: 59

Task: Fill blank: measured ATP of the substance ACTgctttccactCTG (ACTGCTTTCCACTCTG; chemistry not given here) [Compound 8-1] is ____.
Output: 58

Task: Fill blank: measured ATP of the substance CGTcagtatgcgAATc (CGTCAGTATGCGAATC; chemistry not given here) [Compound 1-1] is ____.
Output: 100

Task: Fill blank: measured ATP of the substance GCtgtgtgagcttGG (antisense GCTGTGTGAGCTTGG; sugars from the 5' end l2 d11 l2, backbone and methylation of C not given here) [Compound 4-1] is ____.
Output: 51

Task: Fill blank: measured ATP of the substance TGCtacaaaacCCA (antisense TGCTACAAAACCCA; sugars from the 5' end l3 d8 l3, backbone and methylation of C not given here) [Compound 3-1] is ____.
Output: 44

###

# Tested on: PTEC-TERT1 cells
# procedure_text: EGF assay, supernatant of PTEC-TERT1 cells
# experimental_setup: PTEC-TERT1, 6 days, 30 μM oligonucleotide (Table 7)
l = locked nucleic acid (LNA); d = 2'-deoxy (DNA)
I'd be grateful if you could share measured EGF for these entries.
State the value with its unit after it.

Task: Fill blank: measured EGF of the substance ACTgctttccactCTG (ACTGCTTTCCACTCTG; chemistry not given here) [Compound 8-1] is ____.
Output: 15126 % saline

Task: Fill blank: measured EGF of the substance GCtgtgtgagcttGG (antisense GCTGTGTGAGCTTGG; sugars from the 5' end l2 d11 l2, backbone and methylation of C not given here) [Compound 4-1] is ____.
Output: 7311 % saline

Task: Fill blank: measured EGF of the substance ACTgcrtttcrcacrtCTG (antisense ACTGCTTTCCACTCTG; LNA gapmer, stereodefined phosphorothioates, chemistry not fully specified) [Compound 8-3] is ____.
Output: 3416 % saline

Task: Fill blank: measured EGF of the substance CACattscscttsgsctCTG (antisense CACATTCCTTGCTCTG; LNA gapmer, stereodefined phosphorothioates, chemistry not fully specified) [Compound 10-4] is ____.
Output: 157 % saline

Task: Fill blank: measured EGF of the substance CACattrcrcttrgrctCTG (antisense CACATTCCTTGCTCTG; LNA gapmer, stereodefined phosphorothioates, chemistry not fully specified) [Compound 10-5] is ____.
Output: 1069 % saline

Task: Fill blank: measured EGF of the substance CACattsccttsgctsCTsG (antisense CACATTCCTTGCTCTG; LNA gapmer, stereodefined phosphorothioates, chemistry not fully specified) [Compound 10-2] is ____.
Output: 156 % saline

###

I'd be grateful if you could share measured Toxicity grade for these entries.
# Tested on: PTEC-TERT1 cells
# procedure_text: EGF assay, supernatant of PTEC-TERT1 cells
# experimental_setup: PTEC-TERT1, 6 days, 10 μM; from EGF, assay window saline vs toxic reference compound 4-1
l = locked nucleic acid (LNA); d = 2'-deoxy (DNA)
Would you mind answering with just the numeric figure?

Task: Hi! What's the reported Toxicity grade for CACattrcrcttrgrctCTG (antisense CACATTCCTTGCTCTG; LNA gapmer, stereodefined phosphorothioates, chemistry not fully specified) [Compound 10-5] on PTEC-TERT1 cells?
Output: 13

Task: Hi! What's the reported Toxicity grade for ACTgcstttcscacstCTG (antisense ACTGCTTTCCACTCTG; LNA gapmer, stereodefined phosphorothioates, chemistry not fully specified) [Compound 8-2] on PTEC-TERT1 cells?
Output: 219

Task: Hi! What's the reported Toxicity grade for CACattsccttsgctsCTsG (antisense CACATTCCTTGCTCTG; LNA gapmer, stereodefined phosphorothioates, chemistry not fully specified) [Compound 10-2] on PTEC-TERT1 cells?
Output: 3

Task: Hi! What's the reported Toxicity grade for ACTgctttccactCTG (ACTGCTTTCCACTCTG; chemistry not given here) [Compound 8-1] on PTEC-TERT1 cells?
Output: 323

Task: Hi! What's the reported Toxicity grade for GCtgtgtgagcttGG (antisense GCTGTGTGAGCTTGG; sugars from the 5' end l2 d11 l2, backbone and methylation of C not given here) [Compound 4-1] on PTEC-TERT1 cells?
Output: 100

Task: Hi! What's the reported Toxicity grade for CACattscscttsgsctCTG (antisense CACATTCCTTGCTCTG; LNA gapmer, stereodefined phosphorothioates, chemistry not fully specified) [Compound 10-4] on PTEC-TERT1 cells?
Output: 1

###

# Test system: PTEC-TERT1 cells
# procedure_text: EGF assay, supernatant of PTEC-TERT1 cells
# experimental_setup: PTEC-TERT1, Day 10, 33 μM (Table 3)
l = locked nucleic acid (LNA); d = 2'-deoxy (DNA)
Flag rule - EGF less than 60 % saline flags Condition met; the remaining entries get Condition not met.

Task: Strictly below 60 % saline in EGF? GCtgtgtgagcttGG (antisense GCTGTGTGAGCTTGG; sugars from the 5' end l2 d11 l2, backbone and methylation of C not given here) [Compound 4-1]
Output: Condition not met

Task: Strictly below 60 % saline in EGF? AATgctacaaaaCCCA (antisense AATGCTACAAAACCCA; sugars from the 5' end l3 d9 l4, backbone and methylation of C not given here) [Compound 2-1]
Output: Condition not met

Task: Strictly below 60 % saline in EGF? CGTcagtatgcgAATc (CGTCAGTATGCGAATC; chemistry not given here) [Compound 1-1]
Output: Condition met

Task: Strictly below 60 % saline in EGF? TAAggcaatcaagGTA (TAAGGCAATCAAGGTA; chemistry not given here) [Compound 5-1]
Output: Condition not met

Task: Strictly below 60 % saline in EGF? TGCtacaaaacCCA (antisense TGCTACAAAACCCA; sugars from the 5' end l3 d8 l3, backbone and methylation of C not given here) [Compound 3-1]
Output: Condition not met

###

I'd be grateful if you could share measured EGF for these entries.
# Test system: PTEC-TERT1 cells
# procedure_text: EGF assay, supernatant of PTEC-TERT1 cells
# experimental_setup: PTEC-TERT1, Day 7, 33 μM (Table 3)
l = locked nucleic acid (LNA); d = 2'-deoxy (DNA)
Report as a plain number; the unit % saline is understood.

Task: Fill blank: measured EGF of the substance GCtgtgtgagcttGG (antisense GCTGTGTGAGCTTGG; sugars from the 5' end l2 d11 l2, backbone and methylation of C not given here) [Compound 4-1] is ____.
Output: 983

Task: Fill blank: measured EGF of the substance CGTcagtatgcgAATc (CGTCAGTATGCGAATC; chemistry not given here) [Compound 1-1] is ____.
Output: 122

Task: Fill blank: measured EGF of the substance TAAggcaatcaagGTA (TAAGGCAATCAAGGTA; chemistry not given here) [Compound 5-1] is ____.
Output: 249

Task: Fill blank: measured EGF of the substance TGCtacaaaacCCA (antisense TGCTACAAAACCCA; sugars from the 5' end l3 d8 l3, backbone and methylation of C not given here) [Compound 3-1] is ____.
Output: 287

Task: Fill blank: measured EGF of the substance AATgctacaaaaCCCA (antisense AATGCTACAAAACCCA; sugars from the 5' end l3 d9 l4, backbone and methylation of C not given here) [Compound 2-1] is ____.
Output: 88
